Cited source for all entries: PubChem BioAssay

assay_details: DUSP6 inhibitors restoring Erk phosphorylation by chemical complementation, primary imaging in DUSP6-transfected HeLa (AID 609)
condition_label: HeLa MKP-3 transfected, phospho-Erk imaging KS statistic; measured here: nuclear pErk red intensity z-score; at 10 µM; stronger effect = higher value; cells stimulated with TPA for 15 min
Class (by z-score) -- bin 1: < -0.3; bin 2: ≥ -0.3 and < 0.4; bin 3: ≥ 0.4

[
  {
    "molecule": "S=c1nc(-c2ccccc2)[nH]n1-c1ccccc1",
    "label": "bin 1"
  },
  {
    "molecule": "c1ccc(C2=Nn3c(nnc3-c3ccccn3)SC2)cc1",
    "label": "bin 3"
  },
  {
    "molecule": "Cn1cc(NC(=O)c2cc(NC(=O)c3cc(NC=O)cn3C)cn2C)cc1C(=O)NCCC(=N)N",
    "label": "bin 2"
  },
  {
    "molecule": "CCOc1ccc(Br)cc1CC(=O)O",
    "label": "bin 1"
  },
  {
    "molecule": "CCCOc1ccc(/C(O)=C2/C(=O)C(=O)N(CCN(C)C)C2c2ccncc2)cc1 (stereo not given)",
    "label": "bin 1"
  },
  {
    "molecule": "COc1ccc(OC)c(C2/C(=C(/O)c3ccc(C)cc3)C(=O)C(=O)N2Cc2ccco2)c1 (stereo not given)",
    "label": "bin 2"
  },
  {
    "molecule": "Cc1cccc(C)c1NC(=O)C1CCCCN1C (stereo not given)",
    "label": "bin 2"
  },
  {
    "molecule": "Clc1ccc(-c2cn3c(n2)CCC3)cc1",
    "label": "bin 3"
  },
  {
    "molecule": "C=COC(=O)CSc1nc(-c2cccs2)ccc1C#N",
    "label": "bin 2"
  }
]

---

Reported NADPH fluorescence slope values for a set of compounds
measured_target: Voltage-gated potassium channel subunit beta-2 (Rattus norvegicus) (UniProt P62483)
Sequence (P62483 whole entry, looked up): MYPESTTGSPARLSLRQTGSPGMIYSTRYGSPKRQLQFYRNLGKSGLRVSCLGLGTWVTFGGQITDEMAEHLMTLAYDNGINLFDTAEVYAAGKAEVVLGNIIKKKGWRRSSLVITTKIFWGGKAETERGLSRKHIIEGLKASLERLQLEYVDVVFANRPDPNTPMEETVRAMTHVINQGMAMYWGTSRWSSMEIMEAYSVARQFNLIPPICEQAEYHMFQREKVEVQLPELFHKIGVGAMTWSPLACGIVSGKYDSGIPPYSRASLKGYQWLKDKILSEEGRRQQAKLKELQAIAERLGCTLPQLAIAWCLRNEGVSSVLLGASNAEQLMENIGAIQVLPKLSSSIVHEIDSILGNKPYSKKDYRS
assay_details: KvBeta positive modulators, primary screen, biochemical, NADPH fluorescence (AID 623);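 further: fluorescence intensity change per second fitted from 20 to 320 s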
condition_label: Recombinant KvBeta, NADPH fluorescence decrease slope, 10 min; at 10 µM; stronger effect = lower value

[
  {
    "compound": "CN(C=C1C(=O)CC(C)(C)CC1=O)CCN1CCNCC1",
    "NADPH fluorescence slope": "-5.2e-05"
  },
  {
    "compound": "Cc1ccccc1N1C(=O)C2ON(c3ccccc3)C(c3ccncc3)C2C1=O (stereo unspecified)",
    "NADPH fluorescence slope": -0.000127
  },
  {
    "compound": "O=C(CCC(=O)CCN1CCCCC1)CCN1CCCCC1",
    "NADPH fluorescence slope": -0.000129
  },
  {
    "compound": "Cc1cc(C)c(-n2c(O)c(C=NCCN3CCOCC3)c(=O)[nH]c2=O)c(C)c1",
    "NADPH fluorescence slope": "-5e-07"
  },
  {
    "compound": "Cc1[nH]c2ccc3c(ncn3CCC#N)c2c1C",
    "NADPH fluorescence slope": "-3.5e-05"
  },
  {
    "compound": "CCOc1ccc(-c2nnc3sc(-c4ccccc4OC)nn23)cc1",
    "NADPH fluorescence slope": -0.000132
  },
  {
    "compound": "O=C(Nc1nccs1)NC(C(F)(F)F)C(F)(F)F",
    "NADPH fluorescence slope": "-4.1e-05"
  },
  {
    "compound": "CCOC(=O)CSC1=C(C#N)C(=O)NC(c2ccc(OC)c(OC)c2)S1 (stereo unspecified)",
    "NADPH fluorescence slope": "-5e-05"
  },
  {
    "compound": "CC(=O)N[C@H]1C[C@@H]1c1ccccc1",
    "NADPH fluorescence slope": "3.1e-05"
  },
  {
    "compound": "CC1(C)CC(=O)C(C=NCC(O)c2ccccc2)=C(O)C1 (stereo unspecified)",
    "NADPH fluorescence slope": "-1.9e-05"
  },
  {
    "compound": "Cc1ccnc(N2CCN(c3cc(C)c(C#N)c4nc5ccccc5n34)CC2)c1",
    "NADPH fluorescence slope": "-8.8e-06"
  }
]
